Tested on: NCI-H522 lung
test details: NCI-60 one-dose screen, 48 h
test conditions: 10 µM unless noted
The panel holds about 83,000 compounds, 20% with a hit somewhere; the sample as a whole holds those more often. Calls of active or inactive are those of the source. The calls were made as follows: active = growth percent below 10; inactive = the rest.
Please reply with one of these outcomes: True (active), False (inactive)

COc1ccc2c(c1)C/C(=C\c1cc(-c3cc(OC)c(OC)c(OC)c3)n[nH]1)C2=O: False
Cc1ccc(N(CC(=O)Nc2ccc(S(=O)(=O)N3CCC(N4CCCC4)CC3)cc2)S(=O)(=O)c2ccc(Cl)cc2)cc1: False
COc1cnc2c(c1)C(=O)c1c-2n(CCCNC2=NCCS2)c(=O)c2cc([N+](=O)[O-])ccc12: False
COc1ccc(-c2cc(-c3cccs3)n(N=O)c(=O)c2C#N)cc1: False
COc1cnc2c(c1)C(=O)c1c-2n(CCCNC(C)C)c(=O)c2cc([N+](=O)[O-])ccc12: True

q: I'd appreciate the recorded outcome for CC1(C)C(=O)/C(=C\c2cccnc2)C[C@]2(C)[C@H]3CC[C@@H]4[C@@H](C(=O)/C=C/c5ccncc5)CC[C@@]4(C)[C@]3(C)CC[C@@H]12 from this test.
a: False

q: I'd appreciate the recorded outcome for C[C@@H](Oc1ccc(C(=O)NS(=O)(=O)C(C)(C)C)cc1C(F)(F)F)c1ccc(Oc2ccccc2)cn1 from this test.
a: False

q: I'd appreciate the recorded outcome for O=S(=O)(NCCNc1cc(-c2cn(-c3ccccc3)nc2-c2cccc(O)c2)ccn1)c1cccc(F)c1 from this test.
a: False

###

Test system: U251 CNS
test details: NCI-60 one-dose screen, 48 h
test conditions: 10 µM unless noted
Description: Growth inhibition of the U251 human tumor cell line is measured as a screen for anti-cancer activity. Cells are grown in 96 well plates and exposed to the test compound for 48 hours. Compounds are tested at a single concentration, which is 10^-5 M for most compounds. The reported endpoint is percent growth (GI% or GIPRCNT), where numbers from 0 - 100% represent growth inhibition, and numbers from -100% - 0 represent cell death. For example, a value of 40 represents 60% growth inhibition. […]
This is part of a sample that, as a whole, favours compounds with a hit. Of some 83,000 tested, about 20% had one in any assay. Active and inactive are the calls of the source. How the source made its calls: active means growth percent below 10; inactive means the rest.
Please reply with one of these outcomes: yes = active, no = inactive

Example entries and their recorded answers appear below.
C=C1C(=O)O[C@H]2[C@H]1CC/C(COC(=O)N[C@H](Cc1c[nH]c3ccccc13)C(=O)OC)=C\CC[C@@]1(C)O[C@@H]21: no
CC1(C)C=CC[C@]2(C)[C@H]3CC[C@@H]4[C@H]5[C@H](C(=O)/C=C/c6cccnc6)CC[C@]5(CO)CC[C@@]4(C)[C@]3(C)CC[C@@H]12: yes
Oc1cccc2ccc(N/N=C/c3cc(CN4CCCCC4)c(O)c4ncccc34)nc12: yes
Cn1cccc1/C=C1/SC(=S)N(CCc2ccc(O)cc2)C1=O: no
COc1cccc(-c2nn(-c3ccccc3)cc2-c2ccnc(NCCCNS(=O)(=O)c3ccc(Br)cc3)c2)c1: no
O=C(/C=C/c1cccc2ccccc12)Nc1ncc(Cc2ccccc2)s1: yes
NC1=NN(c2ccccc2)C(=O)/C1=C/c1ccc(Cl)cc1: no
NC(=O)[C@@H]1CC2CCC1C2 (some centres undefined): no

# evaluate next
q: I'd appreciate the recorded outcome for N=C(N)c1ccc(-c2ccc(-c3cc(F)cc(F)c3)o2)nc1 from this test.
a: no

###

Test system: HCT-116 colon
test details: NCI-60 one-dose screen, 48 h (100 = growth as untreated, 0 = no growth, -100 = all killed)
test conditions: 10 µM unless noted
Method: Growth inhibition of the HCT-116 human tumor cell line is measured as a screen for anti-cancer activity. Cells are grown in 96 well plates and exposed to the test compound for 48 hours. Compounds are tested at a single concentration, which is 10^-5 M for most compounds. The reported endpoint is percent growth (GI% or GIPRCNT), where numbers from 0 - 100% represent growth inhibition, and numbers from -100% - 0 represent cell death. For example, a value of 40 represents 60% growth inhibition. […]
This is part of a sample that, as a whole, favours compounds with a hit. Of some 83,000 tested, about 20% had one in any assay.
# if measured growth < 30%: Condition met  # else: Condition not met

Example entries and their recorded answers appear below.
COc1ccc(-c2cc(/C=C/C(=O)c3ccc(N)cc3)[nH]n2)cc1: Condition met
O=C(O)c1cccc2c1-c1ccc(Cl)cc1C2: Condition not met
N#CC1C(=N)Cc2ccccc2-c2ccccc21 (stereo not given): Condition not met
Cn1cc(-c2csc(-c3cn(CCCN4CCCCC4)c4ccc(Br)cc34)n2)c2cccnc21: Condition met

q: Check if growth falls below 30% for CCC1C(=O)COC1=O (stereo not given) .
a: Condition not met

q: Check if growth falls below 30% for NNC(=O)c1nc2ccccc2[nH]1 .
a: Condition not met

q: Check if growth falls below 30% for CC(C)=CCC/C(C)=C/CC/C(C)=C/CSC[C@H](NC(=O)CCCCCN1CCN(C)CC1)C(=O)NC1CCCCCC1 .
a: Condition met

###

Test system: UACC-62 melanoma
test details: NCI-60 one-dose screen, 48 h (100 = growth as untreated, 0 = no growth, -100 = all killed)
test conditions: 10 µM unless noted
Compounds without any hit were thinned out: in the full panel of roughly 83,000, 20% have a hit. Activity calls are given as the source filed them. The calls were made as follows: active = growth percent below 10; inactive = the rest.
metric: growth

Example entries and their recorded answers appear below.
Cn1c(/C(C#N)=C/c2ccc3ccccc3c2)cc2ccccc21: 18.7% (inactive)
N=C(N)N=Nc1ccc(O)cc1: 86.6% [100 µM] (inactive)
O=C1c2cccc3cccc(c23)C(=O)N1CC#Cc1ccc2c3c(cccc13)C(=O)N(CCN1CCNCC1)C2=O: 105% (inactive)
C=C(C)[C@@H]1CC[C@]2(C)[C@H](CC[C@@H]3[C@H]4[C@H]5OC[C@@]4(CCC5(C)C)CC[C@]32C)[C@@]1(C)CCCN: 98.5% (inactive)

Here is the next item to consider.
q: Provide growth, system UACC-62 melanoma, entry Nc1c(C(=O)Nc2cccc(Br)c2)sc2nc3c(cc12)C(=O)CCC3
a: 35.3% (inactive)

###

For each of the compounds below, state its growth.
Test system: A549/ATCC NSCLC
test details: NCI-60 one-dose screen, 48 h (100 = growth as untreated, 0 = no growth, -100 = all killed)
test conditions: 10 µM unless noted
Compounds without any hit were thinned out: in the full panel of roughly 83,000, 20% have a hit.
Answers are plain numbers, in %.

COc1ccc2c(c1)c1nc3cc(C)c(C)cc3nc1n2CCN(C)C: -75
CC(C)(C)c1nc(-c2ccc(O)c(O)c2)cs1: 55.7
CC(=O)OC(C)COc1ccc(-c2ccccc2)cc1 (configuration not stated): 54.9
COC1=C(Br)C(=O)C(OC)=C(Br)C1=O: 102
Cc1nc([P+](c2ccccc2)(c2ccccc2)c2ccccc2)c(Sc2sc(-c3ccccc3)nc2[P+](c2ccccc2)(c2ccccc2)c2ccccc2)o1: 11.5
CCCCC/C(=C\c1ccccc1)C1OC(C)C(C)O1 (configuration not stated): 68.5
O=C(/C=C/c1ccc2ccccc2c1)Nc1ncc(Cc2ccccc2)s1: 21.6
COc1ccc(-c2nc3ncccn3c2-c2nc3ccc(Br)cc3[nH]2)cc1: 84.9
COc1ccc(C(=O)c2ccc(C)cc2)c(OC)c1OC: 78.3
OCC(CO)(CCl)CCl: 76.7

Please give growth, item by item, for the list that follows.
1. CCCC1CCCCN1C(=O)OCC(C)C (configuration not stated)
2. Cn1cc(-c2nc(-c3cn(C)c4ncccc34)cs2)c2cc(F)ccc21
3. OCC1OC(n2cnc3c(Cl)ncnc32)CC1O (configuration not stated)
4. Cc1cc(N2CCOCC2)nc(N(CCCNc2ccnc3cc(Cl)ccc23)Cc2ccco2)n1
5. CCCCn1c(-c2ccc(O)cc2)cn2c3c(=O)[nH]c(=O)n(C)c3nc12
6. CC(=O)O[C@H]1CC[C@@]2(C)[C@@H](CC[C@@H]3[C@@H]2CC(=O)[C@@]2(C)[C@H]3C[C@@H](C3CCCC3=O)[C@@H]2C(C)=O)C1 (some centres not stated)
7. Cc1csc(-c2ccc3c(c2)COC3(CCCN(C)C)c2ccc(F)cc2)c1 (configuration not stated)
8. COc1ccc2c(c1)c(-c1nc(-c3cn(C)c4ncccc34)cs1)cn2CCN

a:
104
38.1
104
18.9
75
101
31.3
45.7

Please give growth, item by item, for the list that follows.
1. COc1ccc2[nH]c(-c3ccc(Cl)cc3)cc(=O)c2c1
2. O=C(NCN1C(=O)c2cccc3cccc(c23)C1=O)N1CCC(Cc2ccccc2)CC1

a:
1: 96.3; 2: 89.8

Please give growth, item by item, for the list that follows.
1. CCCCCCCCNc1cccc2c1C(=O)c1ccccc1C2=O
2. CC1=NN(c2ccc(S(=O)(=O)O)cc2Cl)C(=O)C1

a:
1: 91.7; 2: 99.7
